Assayed target: R-LDH5 (lactate dehydrogenase (LDH) 5, SEQ ID NO: 1, derived from skeletal muscle) (Oryctolagus cuniculus, UniProt P13491, L277I/T249S)
Method: Evaluation of enzymatic reactivity with lactate dehydrogenase R-LDH5 (Test Examples 1 and 2)
Assay type: biochemical
Setup conditions: 19 mM β-NMN in R1 reagent; R-LDH5 245 U/mL final; 37° C.; 340 nm; one unit = 0.1 mAbs change in absorbance per minute; average of three measurements
Mark y for Enzymatic reactivity (unit) under 30 unit, n if at or over.

{"Compound": "NC(=O)c1ccc[n+]([C@@H]2O[C@H](COP(=O)([O-])O)[C@@H](O)[C@H]2O)c1 [Production Example 4, β-nicotinamide mononucleotide]", "Class assignment": "n"}
{"Compound": "NC(=O)c1ccc[n+]([C@@H]2O[C@H](COP(=O)([O-])O)[C@@H](O)[C@H]2O)c1 [β-NMN product 2, β-nicotinamide mononucleotide]", "Class assignment": "y"}
{"Compound": "NC(=O)c1ccc[n+]([C@@H]2O[C@H](COP(=O)([O-])O)[C@@H](O)[C@H]2O)c1 [β-NMN product 3, β-nicotinamide mononucleotide]", "Class assignment": "y"}
{"Compound": "NC(=O)c1ccc[n+]([C@@H]2O[C@H](COP(=O)([O-])O)[C@@H](O)[C@H]2O)c1 [β-NMN product 1, β-nicotinamide mononucleotide]", "Class assignment": "y"}
{"Compound": "NC(=O)c1ccc[n+]([C@@H]2O[C@H](COP(=O)([O-])O)[C@@H](O)[C@H]2O)c1 [Production Example 1, β-nicotinamide mononucleotide]", "Class assignment": "n"}
{"Compound": "NC(=O)c1ccc[n+]([C@@H]2O[C@H](COP(=O)([O-])O)[C@@H](O)[C@H]2O)c1 [Production Example 2, β-nicotinamide mononucleotide]", "Class assignment": "n"}
{"Compound": "NC(=O)c1ccc[n+]([C@@H]2O[C@H](COP(=O)([O-])O)[C@@H](O)[C@H]2O)c1 [Production Example 3, β-nicotinamide mononucleotide]", "Class assignment": "n"}
